target entity: T1, Human BCMA (B Cell Maturation Antigen) (human, UniProt Q02223 1-184)
T1 sequence: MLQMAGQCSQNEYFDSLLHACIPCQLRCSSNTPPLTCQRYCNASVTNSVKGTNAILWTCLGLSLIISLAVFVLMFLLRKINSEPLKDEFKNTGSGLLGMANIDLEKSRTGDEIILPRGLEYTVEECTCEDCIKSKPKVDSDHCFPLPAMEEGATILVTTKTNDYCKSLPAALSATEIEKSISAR
test description: cell-based or functional assay
attribute measured: EC50 of cell viability (Cell Titer-Glo), MM.1R (BCMA+) cells
Respond with the figure and its unit, in that order.

Take a look at these entries with their results.
[
  {
    "binder": "anti-BCMA-AB2-Compound 3 (antibody, V domains shown, drug-linker Compound 3 on antibody cysteine thiols (positions not stated)) VH: EVQLVESGGGLVKPGGSLRLSCAASGFTSSTAWMSWVRQAPGKGLEWVGRIKSKSDGGTTDYAAPVKGRFTISRDDSKNTLFLQMNSLKTEDTAVYYCAKGGGTYGYWGQGTTVTVSS VL: QSALTQPASVSGSPGQSVTISCTGTSSDGGGHTYVSWYQQHPGKAPKLMIYDVSNRPSWVSNRFSGSKSGNTASLTISGLQAEDEADYYCGSYTSSGSYVFGTGTKLTVL",
    "value": "55.3 nM"
  },
  {
    "binder": "anti-BCMA-AB2-Compound 5 (antibody, V domains shown, drug-linker Compound 5 on antibody cysteine thiols (positions not stated)) VH: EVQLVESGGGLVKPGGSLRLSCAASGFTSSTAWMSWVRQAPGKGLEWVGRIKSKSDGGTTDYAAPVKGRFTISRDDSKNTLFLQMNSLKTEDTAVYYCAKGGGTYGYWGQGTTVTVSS VL: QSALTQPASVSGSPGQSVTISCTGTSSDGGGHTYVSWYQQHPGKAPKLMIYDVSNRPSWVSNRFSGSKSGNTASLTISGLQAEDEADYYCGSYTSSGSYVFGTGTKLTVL",
    "value": "143 nM"
  }
]

Please look at the following binder next.
(Q) So what's the measured EC50 of cell viability (Cell Titer-Glo), MM.1R (BCMA+) cells for this one? anti-BCMA-AB2-Compound 7 (antibody, V domains shown, drug-linker Compound 7 on antibody cysteine thiols (positions not stated)) VH: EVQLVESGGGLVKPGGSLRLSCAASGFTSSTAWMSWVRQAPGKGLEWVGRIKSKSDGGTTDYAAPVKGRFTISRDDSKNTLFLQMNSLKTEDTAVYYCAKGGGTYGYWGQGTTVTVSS VL: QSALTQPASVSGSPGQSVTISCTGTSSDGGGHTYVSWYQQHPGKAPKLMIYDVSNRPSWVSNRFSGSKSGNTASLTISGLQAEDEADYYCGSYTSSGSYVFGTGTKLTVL
(A) 259 nM
